Test system: M14 melanoma
Assay: NCI-60 one-dose screen, 48 h (100 = growth as untreated, 0 = no growth, -100 = all killed)
Settings: 10 µM unless noted
Method: Growth inhibition of the M14 human tumor cell line is measured as a screen for anti-cancer activity. Cells are grown in 96 well plates and exposed to the test compound for 48 hours. Compounds are tested at a single concentration, which is 10^-5 M for most compounds. The reported endpoint is percent growth (GI% or GIPRCNT), where numbers from 0 - 100% represent growth inhibition, and numbers from -100% - 0 represent cell death. For example, a value of 40 represents 60% growth inhibition. […]
The panel holds about 83,000 compounds, 20% with a hit somewhere; the sample as a whole holds those more often.

| MOLECULE | TESTED ON | UNIT ABBREVIATION | growth |
| --- | --- | --- | --- |
| CCN1/C(=C/C(C)=C/c2sc3ccc4ccccc4c3[n+]2CC)Sc2ccc3ccccc3c21 | M14 melanoma | % | -79.8 |
| N#CC(=C1SCS1)[N+](=O)[O-] | M14 melanoma | % | -1.46 |
| Cc1cc(Br)c2nsnc2c1[N+](=O)[O-] | M14 melanoma | % | 3.57 |
| CN(C)c1ccc(C(C#N)(c2ccccc2)c2ccc(N(C)C)cc2)cc1 | M14 melanoma | % | 55.2 |
| Oc1ccccc1N=Cc1ccccc1 | M14 melanoma | % | 87.6 |
| O=C(c1ccccc1)C(Br)C(Br)c1ccccc1 (configuration not stated) | M14 melanoma | % | 2.17 |
| O=[n+]1c2ccccc2n([O-])c2cc(Cl)ccc21 | M14 melanoma | % | 104 |
